These data points were gathered from ChEMBL document CHEMBL5247610.

- testDetails: Toxicity in Zebra fish AB embryo assessed as mortality rate at 1 uM incubated for 72 hrs
- Parameters: species or system Danio rerio
- assayConditions: zebrafish, read-out: Activity
assayEndpoint: mortality at 72 h, 1 µM (%)
Respond numerically; units are % and should not be typed.

Request: Give the reported mortality at 72 h, 1 µM for this compound. CC1=C(O)C(=O)C=C2C1=CC=C1[C@@]2(C)CC[C@@]2(C)[C@@H]3C[C@](C)(C(=O)O)CC[C@]3(C)CC[C@]12C
Response: 100

###

# viability at 10 µM per entry
- System: HeLa
- testDetails: Antiproliferative activity against human HeLa cells assessed as cell viability at 10 uM incubated for 48 hrs by MTT assay
- Type: functional
- assayConditions: read-out: Activity
Respond numerically; units are % and should not be typed.

moleculeSmiles | unitsLabel | viability at 10 µM
Nc1ccccc1NC(=O)c1cc2cc(Nc3nccc(-c4cccnc4)n3)ccc2[nH]1 | % | 33.2

Request: Give the reported viability at 10 µM for this compound. Cc1ccc(NC(=O)c2cc3cc(Nc4nccc(-c5cccnc5)n4)ccc3[nH]2)c(C)c1
Response: 38.3

Request: Give the reported viability at 10 µM for this compound. COc1cccc(NC(=O)c2cc3cc(Nc4nccc(-c5cccnc5)n4)ccc3[nH]2)c1
Response: 30.2

Request: Give the reported viability at 10 µM for this compound. COc1ccc(NC(=O)c2cc3cc(Nc4nccc(-c5cccnc5)n4)ccc3[nH]2)cc1OC
Response: 74.4
